- measurementTarget: HLA-B4601 (Homo sapiens, UniProt P01889, A329T/A93R/C349S/D201E/E100V/E187L/E204Q/E69M/E70A/I90K/K202T/N87E/R155S/R180W/S121R/S35A/S48A/V306I/V36M/Y140S)
- test: Competitive peptide binding assay, CIR-B4601
- conditionDescription: HMy2.CIR-B4601 cells, reference Cy5-[…], class from inhibition at 5 and 15 μM, flow cytometry MFI; read-out: Binding affinity with HLA-B4601
Peptide text beside a SMILES is read from it.
// values below are reported IC50

The cases that follow already have their IC50 on record.
{"columns": ["compound", "IC50"],
 "data": [
  ["CC[C@H](C)[C@H](NC(=O)[C@H](CCCNC(=N)N)NC(=O)[C@H](CC(C)C)NC(=O)[C@H](CCSC)NC(=O)[C@H](CC(N)=O)NC(=O)[C@@H]1CCCN1C(=O)[C@H](CCSC)NC(=O)[C@H](C)NC(=O)[C@@H](N)CCCNC(=N)N)C(=O)O [Epitope Y77] (H-RAMPNMLRI-OH; N-terminus and C-terminus assumed)", "5 to 15 µM"],
  ["CC[C@H](C)[C@H](NC(=O)[C@H](C)NC(=O)[C@H](C)NC(=O)[C@H](CC(N)=O)NC(=O)[C@H](CC(N)=O)NC(=O)[C@H](C)NC(=O)[C@@H]1CCCN1C(=O)[C@@H](N)CC(N)=O)C(=O)N[C@H](C(=O)O)C(C)C [Epitope Y18] (H-NPANNAAIV-OH; N-terminus and C-terminus assumed)", "> 15 µM"],
  ["CC[C@H](C)[C@H](NC(=O)[C@H](Cc1ccc(O)cc1)NC(=O)[C@H](CCC(N)=O)NC(=O)[C@H](CCC(=O)O)NC(=O)[C@@H](N)Cc1ccc(O)cc1)C(=O)N[C@@H](CCCCN)C(=O)N[C@@H](Cc1c[nH]c2ccccc12)C(=O)N1CCC[C@H]1C(=O)N[C@@H](Cc1c[nH]c2ccccc12)C(=O)O [Epitope Y230] (H-YEQYIKWPW-OH; N-terminus and C-terminus assumed)", "> 15 µM"],
  ["CC(C)[C@H](NC(=O)[C@H](CC(N)=O)NC(=O)[C@H](Cc1ccc(O)cc1)NC(=O)[C@H](C)NC(=O)[C@@H](N)CCCCN)C(=O)N[C@H](C(=O)N[C@@H](CCC(N)=O)C(=O)N[C@@H](C)C(=O)N[C@@H](Cc1ccccc1)C(=O)O)[C@@H](C)O [Epitope Y62] (H-KAYNVTQAF-OH)", "5 to 15 µM"],
  ["CC[C@H](C)[C@H](N)C(=O)N[C@@H](C)C(=O)N[C@@H](CCSC)C(=O)N[C@@H](C)C(=O)N[C@@H](CS)C(=O)N[C@@H](CC(C)C)C(=O)N[C@H](C(=O)NCC(=O)N[C@@H](CC(C)C)C(=O)O)C(C)C [Epitope Y253] (H-IAMACLVGL-OH; N-terminus and C-terminus assumed)", "< 5 µM"],
  ["CC[C@H](C)[C@H](NC(=O)[C@H](CC(C)C)NC(=O)[C@@H](N)CCC(=O)O)C(=O)N[C@@H](CCCNC(=N)N)C(=O)N[C@@H](CCC(N)=O)C(=O)NCC(=O)N[C@H](C(=O)N[C@@H](CC(=O)O)C(=O)N[C@@H](Cc1ccc(O)cc1)C(=O)O)[C@@H](C)O [Epitope Y162] (H-ELIRQGTDY-OH; N-terminus and C-terminus assumed)", "< 5 µM"],
  ["CSCC[C@H](NC(=O)[C@H](CCCCN)NC(=O)CN)C(=O)N[C@@H](CCCCN)C(=O)N[C@@H](CC(=O)O)C(=O)N[C@@H](CC(C)C)C(=O)N[C@@H](CO)C(=O)N1CCC[C@H]1C(=O)N[C@@H](CCCNC(=N)N)C(=O)N[C@@H](Cc1c[nH]c2ccccc12)C(=O)O [Epitope Y224] (H-GKMKDLSPRW-OH; N-terminus and C-terminus assumed)", "> 15 µM"],
  ["CSCC[C@H](NC(=O)[C@H](CO)NC(=O)[C@H](CCC(N)=O)NC(=O)[C@H](CCC(N)=O)NC(=O)[C@H](CC(C)C)NC(=O)[C@H](CCC(N)=O)NC(=O)[C@H](CCCCN)NC(=O)[C@H](CO)NC(=O)[C@@H](N)Cc1ccccc1)C(=O)O [Epitope Y135] (H-FSKQLQQSM-OH; N-terminus and C-terminus assumed)", "< 5 µM"],
  ["C[C@H](NC(=O)[C@H](CO)NC(=O)[C@H](CO)NC(=O)[C@@H](N)Cc1ccc(O)cc1)C(=O)N[C@@H](CC(N)=O)C(=O)N[C@@H](CC(N)=O)C(=O)N[C@@H](CS)C(=O)N[C@H](C(=O)N[C@@H](Cc1ccccc1)C(=O)O)[C@@H](C)O [Epitope Y247] (H-YSSANNCTF-OH; N-terminus and C-terminus assumed)", "5 to 15 µM"],
  ["CC[C@H](C)[C@H](NC(=O)[C@@H](NC(=O)CNC(=O)[C@H](CC(N)=O)NC(=O)[C@H](CO)NC(=O)[C@H](CC(=O)O)NC(=O)[C@H](C)N)[C@@H](C)O)C(=O)N[C@H](C(=O)N[C@H](C(=O)O)C(C)C)[C@@H](C)O [Epitope Y216] (H-ADSNGTITV-OH; N-terminus and C-terminus assumed)", "> 15 µM"]
]}

Requested field: IC50. Item: CC(C)C[C@H](NC(=O)[C@@H](NC(=O)[C@@H](NC(=O)CNC(=O)[C@H](CCC(N)=O)NC(=O)[C@@H]1CCCN1C(=O)[C@H](CC(C)C)NC(=O)[C@H](CCC(N)=O)NC(=O)[C@@H](N)CC(C)C)[C@@H](C)O)[C@@H](C)O)C(=O)O [Epitope Y61] (H-LQLPQGTTL-OH; N-terminus and C-terminus assumed)
> 15 µM

Sample CC(C)C[C@H](NC(=O)[C@H](CC(=O)O)NC(=O)[C@@H](NC(=O)[C@H](CC(=O)O)NC(=O)[C@@H](NC(=O)[C@H](Cc1c[nH]cn1)NC(=O)[C@H](CO)NC(=O)[C@H](CCC(=O)O)NC(=O)[C@H](C)N)C(C)C)[C@@H](C)O)C(=O)O [Epitope Y198] (H-AESHVDTDL-OH; N-terminus and C-terminus assumed) — what was its IC50?
> 15 µM
